From: patent US8512703B2

# tested target: T1, Class I HLA molecule A*0101 in recombinant form
# T1 MHC heavy: not shown
# protocol summary: iTopia ELISA-like peptide-HLA binding
Some binders, each annotated with its measured Bond results.

| binder | Bond results, % |
| --- | --- |
| RLLIYGASS [VK3-20 peptide No 46 RLLIYGASS] | 0 |
| VSSSYLAWY [VK3-20 peptide No 29 VSSSYLAWY] | 44 |
| SQIVSSSYL [VK3-20 peptide No 26 SQIVSSSYL] | 1 |
| IVSSSYLAW [VK3-20 peptide No 28 IVSSSYLAW] | 0 |
